testMethodNotes: Toxicity liver stage against HepG2, at 10uM
Type: cell-based
Design: test concentration 10 uM, cell line HepG2-A16-CD81EGFP
conditionSet: human, HepG2-A16-CD81EGFP cells; read-out: INHIBITION
propertyName: cytotoxicity at 10 µM (%)
Reply numerically in %, unit not repeated.

compound	endpointResult
CC(=O)N1CC(C(=O)NC(C)c2cnn(C)c2C)C1 (centres undefined)	4.65
Cc1cnc(N2CCOC3(CCCN(C(=O)C(C)C)C3)C2)nc1 (centres undefined)	10.9

Enquiry: Which cytotoxicity at 10 µM value is on record for CO[C@H]1CN(C(=O)OC(C)(C)C)CC1NCc1ccn(C)c1 (some centres undefined) ?
Return: -45.9

Enquiry: Which cytotoxicity at 10 µM value is on record for O=C(CCN1CCc2ccccc21)N1C[C@@H](O)[C@H](N2CCCC2)C1 ?
Return: -17.8

Enquiry: Which cytotoxicity at 10 µM value is on record for CC(=O)N(Cc1noc(C)n1)C1CCN(Cc2ccon2)C1 (centres undefined) ?
Return: 4.74

Enquiry: Which cytotoxicity at 10 µM value is on record for NC(=O)c1cccc(CCNC(=O)N2Cc3ccccc3C2)c1 ?
Return: -9.86

Enquiry: Which cytotoxicity at 10 µM value is on record for Cc1cccc(S(=O)(=O)NC2CCN(CC(F)(F)F)C2)c1 (centres undefined) ?
Return: 0.741

Enquiry: Which cytotoxicity at 10 µM value is on record for Oc1cccc(CN2C[C@@H]3CC[C@H]2CN(Cc2cccnc2)C3)c1 ?
Return: -121

Enquiry: Which cytotoxicity at 10 µM value is on record for CC(c1cc(F)ccc1F)N(C)CCS(=O)(=O)CCC(N)=O (centres undefined) ?
Return: -47

Enquiry: Which cytotoxicity at 10 µM value is on record for CCn1cc(S(=O)(=O)N2CCC(C)CC2)c(C)n1 ?
Return: 8.44

Enquiry: Which cytotoxicity at 10 µM value is on record for CC(C)C(=O)N1CC2(CCN(CC(C)(C)C)CC2)C1 ?
Return: -5.28

* * *

testMethodNotes: Toxicity liver stage against HepG2, at 10uM
Assay type: cell-based
Set-up: test concentration 10 uM, cell line HepG2-A16-CD81EGFP
conditionSet: human, HepG2-A16-CD81EGFP cells; read-out: INHIBITION
propertyName: cytotoxicity at 10 µM (%)
Reply numerically in %, unit not repeated.

The cases that follow already have their cytotoxicity at 10 µM on record.
compound	cytotoxicity at 10 µM (%)
O=C1N(Cc2ccc(Cl)cc2)CCC12CCCNC2 (centres undefined)	-10.8
Cc1cccc(OCCC(=O)N(C)CCC#N)c1C	0.666
O=C(Nc1cn[nH]c1)N1CCN(CCSc2ccccc2)CC1	4.32
CC(=O)N1CCC(c2n[nH]c3nccnc23)CC1	-8.69
CN(Cc1ccc(C2CC(=O)Nc3n[nH]cc32)o1)S(C)(=O)=O (centres undefined)	-13.8

Enquiry: Which cytotoxicity at 10 µM value is on record for Cc1cc(C)n(CC(=O)NC(Cc2ccsc2)c2ccccn2)c(=O)n1 (centres undefined) ?
Return: -1.91

Enquiry: Which cytotoxicity at 10 µM value is on record for CN1C(=O)[C@@H]2CC[C@H]1CN(c1ncnc3ccsc13)C2 ?
Return: 0.636

Enquiry: Which cytotoxicity at 10 µM value is on record for Cc1cc(N2CCN(C(=O)c3cn(C)c4ccccc34)CC2)nc(C)n1 ?
Return: -1.96

Enquiry: Which cytotoxicity at 10 µM value is on record for O=C(CC1[C@H]2CN(Cc3ccncc3)C[C@@H]12)N1CCCC1 (some centres undefined) ?
Return: 2.58

Enquiry: Which cytotoxicity at 10 µM value is on record for Cc1ccccc1CS(=O)(=O)CC(=O)NC1CCCCNC1=O (centres undefined) ?
Return: -7.23

Enquiry: Which cytotoxicity at 10 µM value is on record for Cc1cccc(CN2CCCC(c3nccs3)C2)n1 (centres undefined) ?
Return: 8.38

Enquiry: Which cytotoxicity at 10 µM value is on record for COCC(=O)N1CCCC2(CCN(Cc3cccc(C)n3)C2=O)C1 (centres undefined) ?
Return: -0.559

Enquiry: Which cytotoxicity at 10 µM value is on record for O=C(c1ccc(-n2ccnn2)cc1)N(CC1CC1)c1cccnc1 ?
Return: 22.5

Enquiry: Which cytotoxicity at 10 µM value is on record for CC(=O)N1CCC2(CC1)CN(CC(C)C)CC21CCNC1=O (centres undefined) ?
Return: -1.07

Enquiry: Which cytotoxicity at 10 µM value is on record for CNC(=O)Nc1cc(-c2ccccc2C)nn1CCO ?
Return: 7

Enquiry: Which cytotoxicity at 10 µM value is on record for O=S(=O)(N1CCOCC1)N1CCOC(CCCc2ccccc2)C1 (centres undefined) ?
Return: -8.79

Enquiry: Which cytotoxicity at 10 µM value is on record for Cn1cc(CN2CCc3c(nc(-c4ccccn4)[nH]c3=O)C2)cn1 ?
Return: -5.05

Enquiry: Which cytotoxicity at 10 µM value is on record for CCCS(=O)(=O)c1ncc(CN2CCC(CO)CC2)n1CC1CCCO1 (centres undefined) ?
Return: 7

Enquiry: Which cytotoxicity at 10 µM value is on record for COC(=O)CCn1ccc(=O)c2ccc(OC)cc21 ?
Return: 17.1

* * *

testMethodNotes: Toxicity liver stage against HepG2, at 10uM
Type: cell-based
Set-up: test concentration 10 uM, cell line HepG2-A16-CD81EGFP
conditionSet: human, HepG2-A16-CD81EGFP cells; read-out: INHIBITION
Recorded cytotoxicity at 10 µM by entry
Reply numerically in %, unit not repeated.

The cases that follow already have their cytotoxicity at 10 µM on record.
compound	cytotoxicity at 10 µM [%]
CN(C)c1ccc(-c2cc(C(=O)O)cc(S(=O)(=O)NC3CC3)c2)cc1	16.5
Cc1noc(C)c1CCC(=O)N[C@@H]1CCC[C@@H](Oc2cccnc2)[C@@H]1O	-0.903
CN(C(=O)CCNC(=O)NC1CCCCC1)c1ccccc1	-0.575
CC(=O)c1c(F)cccc1NCC(O)c1ccc(F)c(F)c1 (stereo not drawn)	13.3
CN1CCCC1c1nnc2n1CCN(S(=O)(=O)c1ccccc1Cl)CC2 (stereo not drawn)	4.94
Cc1cccc(C(=O)N2CCN(S(C)(=O)=O)[C@@H](C)C2)c1Cl	5.58
CN(C)c1nc2c(c(N3CCC(O)CC3)n1)CN(CC1CCOC1)CC2 (stereo not drawn)	-0.473
CN1CCC(N2CCN(C(C(=O)O)c3cccc4c3OCC4)CC2)CC1 (stereo not drawn)	11

Enquiry: Which cytotoxicity at 10 µM value is on record for CCn1cc(CNC(=O)C2CCCC2)cn1 ?
Return: 9.18

Enquiry: Which cytotoxicity at 10 µM value is on record for CC(=O)N1CCS(=O)(=O)[C@@H]2CCN(S(=O)(=O)CC(C)C)CC[C@@H]21 ?
Return: 6.1

Enquiry: Which cytotoxicity at 10 µM value is on record for CN1CCN(C2CCN(CCOc3ccc(Cl)cc3)CC2)C1=O ?
Return: -5.36

Enquiry: Which cytotoxicity at 10 µM value is on record for Cc1ncc2c(n1)CN(CC(=O)N1CCc3sccc3C1)CC2 ?
Return: 4.68

Enquiry: Which cytotoxicity at 10 µM value is on record for COc1ccc(OC)c(CNc2c(O)c(=O)c2=O)c1 ?
Return: 7.08

Enquiry: Which cytotoxicity at 10 µM value is on record for Clc1ccc(CN2CCCC(Cn3cncn3)C2)c2ncccc12 (stereo not drawn) ?
Return: -13.7

* * *

testMethodNotes: Toxicity liver stage against HepG2, at 10uM
Format: cell-based
Set-up: test concentration 10 uM, cell line HepG2-A16-CD81EGFP
conditionSet: human, HepG2-A16-CD81EGFP cells; read-out: INHIBITION
propertyName: cytotoxicity at 10 µM (%)
Reply numerically in %, unit not repeated.

The cases that follow already have their cytotoxicity at 10 µM on record.
compound	propertyName	endpointResult
CCCn1cnnc1CNC(=O)C1COc2c(cccc2OC)C1 (stereo unspecified)	cytotoxicity at 10 µM	-1.26
COC(=O)N1CCCC(NC(=O)NCc2ccc(C)nc2)C1 (stereo unspecified)	cytotoxicity at 10 µM	-4.73
Cc1csc(N2CCCN(C(=O)CCN3CCCC3=O)CC2)n1	cytotoxicity at 10 µM	24.3
CC(C)=CCC/C(C)=C/CN1CCN(C)C2(CCNC(=O)CC2)C1 (stereo unspecified)	cytotoxicity at 10 µM	-54.1
O=C([C@H]1CN(Cc2nccs2)C[C@H]2OCC[C@@H]12)N1CCCCO1	cytotoxicity at 10 µM	-111

Enquiry: Which cytotoxicity at 10 µM value is on record for CC(C)CN(Cc1ccc(O)c(C(=O)O)c1)Cc1cnn(C)c1 ?
Return: -3.86

Enquiry: Which cytotoxicity at 10 µM value is on record for O=C(c1c[nH]c(=O)cn1)N1C[C@H]2CC[C@@H](C1)N(Cc1ccccc1)C2 ?
Return: -126

Enquiry: Which cytotoxicity at 10 µM value is on record for Cc1nc(C2CCCN(C(=O)c3sccc3C3CC3)C2)no1 (stereo unspecified) ?
Return: -3.74

Hello, the source for this data is ChEMBL document CHEMBL4513216, in case you need it.
